Reported IC50 values are given for each entry in this list.
# System: 996289-038-R-J1-PDC spheroid viability;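 further: spheroids exposed to compounds for seven days before viability read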
# Protocol summary: Anticancer human tumor 996289-038-R-J1-PDC patient-derived colon adenocarcinoma cell line growth inhibition [PI3K]
# Condition context: curve of first compound; second compound 0.316 µM; spheroids with HUVEC and MSC

Some solved entries appear below for comparison.
Molecule	System tested	Recorded result
CC1(C)CCC(CN2CCN(c3ccc(C(=O)NS(=O)(=O)c4ccc(NCC5CCOCC5)c([N+](=O)[O-])c4)c(Oc4cnc5[nH]ccc5c4)c3)CC2)=C(c2ccc(Cl)cc2)C1 + CC(Nc1ccc2c(c1)OCCn1cc(N3C(=O)OCC3C(F)F)nc1-2)C(N)=O	996289-038-R-J1-PDC spheroid viability	4.81 µM
Cn1cnc2c(F)c(Nc3ccc(Br)cc3Cl)c(C(=O)NOCCO)cc21 + COc1c(OCCCN2CCOCC2)ccc2c3n(c(=NC(=O)c4cnc(N)nc4)nc12)CCN3	996289-038-R-J1-PDC spheroid viability	< 0.00949 µM
CC(C)NCC(C(=O)N1CCN(c2ncnc3c2C(C)CC3O)CC1)c1ccc(Cl)cc1 (stereo unspecified) + CC(Nc1ncnc2nc[nH]c12)c1cc2cccc(Cl)c2c(=O)n1-c1ccccc1	996289-038-R-J1-PDC spheroid viability	> 10 µM
CCN1CCN(Cc2ccc(Nc3ncc(F)c(-c4cc(F)c5nc(C)n(C(C)C)c5c4)n3)nc2)CC1 + CC(Nc1ccc2c(c1)OCCn1cc(N3C(=O)OCC3C(F)F)nc1-2)C(N)=O	996289-038-R-J1-PDC spheroid viability	0.772 µM
Cn1ncnc1[C@H]1c2n[nH]c(=O)c3cc(F)cc(c23)N[C@@H]1c1ccc(F)cc1 + CC(Nc1ccc2c(c1)OCCn1cc(N3C(=O)OCC3C(F)F)nc1-2)C(N)=O	996289-038-R-J1-PDC spheroid viability	> 0.1 µM
C=CC(=O)N1CCN(c2nc(=O)n(-c3c(C)ccnc3C(C)C)c3nc(-c4c(O)cccc4F)c(F)cc23)C(C)C1 (stereo unspecified) + CC(Nc1ccc2c(c1)OCCn1cc(N3C(=O)OCC3C(F)F)nc1-2)C(N)=O	996289-038-R-J1-PDC spheroid viability	> 10 µM
CC(Cn1ccc(-c2ccc(C#N)c(Cl)c2)n1)NC(=O)c1cc(C(C)O)[nH]n1 (stereo unspecified) + CC(Nc1ncnc2nc[nH]c12)c1cc2cccc(Cl)c2c(=O)n1-c1ccccc1	996289-038-R-J1-PDC spheroid viability	> 10 µM
C[C@@H](NC(=O)c1ncnc(N)c1Cl)c1ncc(C(=O)Nc2cc(C(F)(F)F)c(Cl)cn2)s1 + CC(Nc1ccc2c(c1)OCCn1cc(N3C(=O)OCC3C(F)F)nc1-2)C(N)=O	996289-038-R-J1-PDC spheroid viability	> 10 µM

The value of IC50 measured for the molecule CC1(C)CCC(Nc2ncc(C(F)(F)F)c(-c3c[nH]c4c(P(C)(C)=O)c(C#N)ccc34)n2)CN1 (stereo unspecified) + CC(Nc1ccc2c(c1)OCCn1cc(N3C(=O)OCC3C(F)F)nc1-2)C(N)=O turned out to be 4.91 µM

For CC(=O)c1c(C)c2cnc(Nc3ccc(N4CCNCC4)cn3)nc2n(C2CCCC2)c1=O + CC(Nc1ncnc2nc[nH]c12)c1cc2cccc(Cl)c2c(=O)n1-c1ccccc1 the molecule record lists IC50 as > 0.1 µM

// CC1(C)CCC(CN2CCN(c3ccc(C(=O)NS(=O)(=O)c4ccc(NCC5CCOCC5)c([N+](=O)[O-])c4)c(Oc4cnc5[nH]ccc5c4)c3)CC2)=C(c2ccc(Cl)cc2)C1 + Cc1nc(NC(=O)N2CCCC2C(N)=O)sc1-c1ccnc(C(C)(C)C(F)(F)F)c1 : IC50 value = 8.31 µM
